# METHOD: chemical genetic growth profiling, strain panel (AID 1159580);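 further: tested at 20 µM; growth read once vehicle control cultures reached saturation at 30 °C; 1 = growth at the plate median or of vehicle wells; lower values mean less growth of the strain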
# REPORTED CONDITIONS: S. cerevisiae deletion strains, growth OD, locus YHR094C, strain hxt1, active compounds read low
Out of some 5,500 compounds screened, about 2,000 (36%) were called active. Inconclusive results (about 18%) are left out. This is one part of the list.
QUANTITY NAME: normalized growth
A bare number is all that is needed in reply.

N[C@@H](C(=O)O)[C@@H](O)[C@H](O)[C@H](O)CO | 1.02
O=C(O)C(O)C(O)C(=O)O (stereo not given) | 0.987
NCCCCCC(=O)O | 1

What value of measured normalized growth is listed for C[C@]12CCC3c4ccc(O)cc4CCC3C1CCC2=O (stereo not given in full) ?
0.999

What value of measured normalized growth is listed for `Oc1c(Cl)cc(Cl)c(Cl)c1Cc1c(O)c(Cl)cc(Cl)c1Cl` ?
0.0585

What value of measured normalized growth is listed for CC(=O)O[C@H]1C[C@@]2(C)[C@@H](C[C@@H](O)C3[C@]2(C)CC[C@H]2[C@H](C)[C@H](O)CC[C@]32C)/C1=C(/CCC=C(C)C)C(=O)O (stereo not given in full) ?
1.03

What value of measured normalized growth is listed for `COc1ccc2oc(-c3ccccc3)c(OC)c(=O)c2c1` ?
0.936

What value of measured normalized growth is listed for CC(=O)Oc1ccc2c(c1)CCC1C2CC[C@]2(C)C(=O)CCC12 (stereo not given in full) ?
1.02

What value of measured normalized growth is listed for COC(=O)[C@@H]1OC(=O)C2OC23[C@@]1(C)CCC1[C@@]2(C)CCC(=O)C(C)(C)C2C[C@@H](OC(C)=O)[C@]13C (stereo not given in full) ?
0.992

What value of measured normalized growth is listed for `CC(C)(S)[C@@H](N)C(=O)O` ?
0.986

What value of measured normalized growth is listed for CN(C)CCC(c1ccccc1)c1ccccn1 (stereo not given) ?
1

What value of measured normalized growth is listed for `COc1c(C)c2c(c(O)c1C/C=C(\C)CCC(=O)O)C(=O)OC2` ?
0.734

What value of measured normalized growth is listed for Clc1ccc(CSC(Cn2ccnc2)c2ccc(Cl)cc2Cl)cc1 (stereo not given) ?
0.0572

What value of measured normalized growth is listed for `c1ccc2c(CC3=NCCN3)cccc2c1` ?
1.01

What value of measured normalized growth is listed for `FC(F)(F)c1cccc(N2CCNCC2)c1` ?
0.992

What value of measured normalized growth is listed for `O=C(O)CCCCCCCC(=O)O` ?
0.995

Taken from PubChem BioAssay AID1159580.
